biological target: Cytochrome P450 1A2 (Homo sapiens) (UniProt P05177); experiment: p450-cyp1a2 (AID 410); settings: recombinant CYP1A2, luciferin-ME demethylation, luminescence; series mostly up to 25.6 µM
Sequence (P05177 whole entry, looked up): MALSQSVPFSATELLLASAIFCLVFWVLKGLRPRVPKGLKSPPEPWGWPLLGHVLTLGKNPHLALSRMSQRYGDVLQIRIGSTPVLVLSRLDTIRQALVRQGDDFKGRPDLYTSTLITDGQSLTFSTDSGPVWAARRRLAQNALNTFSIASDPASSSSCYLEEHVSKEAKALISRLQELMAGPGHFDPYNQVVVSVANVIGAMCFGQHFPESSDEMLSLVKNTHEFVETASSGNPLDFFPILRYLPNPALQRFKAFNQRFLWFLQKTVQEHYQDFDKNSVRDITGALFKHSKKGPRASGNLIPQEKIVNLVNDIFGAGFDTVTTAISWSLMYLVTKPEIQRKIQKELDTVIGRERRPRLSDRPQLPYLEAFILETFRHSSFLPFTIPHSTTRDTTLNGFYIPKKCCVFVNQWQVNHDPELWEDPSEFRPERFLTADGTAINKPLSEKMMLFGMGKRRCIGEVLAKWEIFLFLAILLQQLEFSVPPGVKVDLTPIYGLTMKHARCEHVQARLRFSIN
Records with an inconclusive call do not appear. Calls of active or inactive are those of the source. Calls come from the whole dose curve.
The reply should name one outcome from active, inactive

Known results for molecules:
* OC(CCCN1CCCCC1)(c1ccccc1)c1ccccc1 | inactive
* C[C@@H](C1=C(CCN(C)C)Cc2ccccc21)c1ccccn1 | active
* CCN(CC)CCOc1ccc(/C(=C(\Cl)c2ccccc2)c2ccccc2)cc1 | active
* CN(C(=O)C(Cl)Cl)c1ccc(OC(=O)c2ccco2)cc1 | inactive
* C[N+](C)(C)CCO | inactive

Returns: the outcome recorded for O=C(CCCCC(=O)Nc1c(I)cc(I)c(C(=O)O)c1I)Nc1c(I)cc(I)c(C(=O)O)c1I in this assay.
inactive

Returns: the outcome recorded for O=C(O)/C=C(\CC(=O)O)C(=O)O in this assay.
inactive

Returns: the outcome recorded for Brc1ccc([C@H]2CN3CCSC3=N2)cc1 in this assay.
active

Returns: the outcome recorded for CCOC(=O)NNc1nncc2ccccc12 in this assay.
active

###

assay: qHTS of pediatric cancer cell lines to identify multiple opportunities for drug repurposing: Confirmatory screen for SK-N-MC cells (AID 1347111); conditions: SK-N-MC cell viability; series mostly up to 45.9 µM;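 note: cells exposed to compound for 48 h before the readout; nearly all actives have a fitted effect of over 70% in size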
Records with an inconclusive call do not appear. Activity calls are given as the source filed them. Calls come from the whole dose curve; as a rule, active = well fitted cell-killing curve with a large enough effect; inconclusive = small, poorly fitted or top-dose-only effect; inactive = no such curve, though single readings can be large or run the other way.
The reply should name one outcome from YES = active, NO = inactive

- C[C@]12CCC(=O)C=C1CC[C@@H]1[C@@H]2[C@@H](O)C[C@@]2(C)[C@H]1CC[C@]2(O)C(=O)COC(=O)CCC(=O)O: YES
- O=[N+]([O-])c1ccc(O)c2ncccc12: YES
- CCC(=O)O[C@]1(C(=O)COC)[C@@H](C)C[C@H]2[C@@H]3CCC4=CC(=O)C=C[C@]4(C)C3(F)[C@@H](O)C[C@@]21C (some centres undefined): NO

Lab note: next molecule to report on.
Returns: the outcome recorded for CCC1(c2cnc[nH]2)Cc2ccccc2C1 in this assay.
YES

###

tested on: SC27B; assay: qHTS profiling for inhibitors of Plasmodium falciparum proliferation (AID 504749); note: nearly all actives have a fitted effect of over 60% in size; details: P. falciparum in erythrocytes, SYBR Green DNA, 72 h; series mostly up to 28.7 µM
Records with an inconclusive call do not appear. Activity calls are given as the source filed them. The call rests on the fitted dose curve; in most records, active means well fitted inhibition curve with a large enough effect; inconclusive means small, poorly fitted or top-dose-only effect; inactive means flat fitted curve, though single readings scatter.
The reply should name one outcome from active, inactive

• CCCCCCCCCCCCCCCC[n+]1ccccc1 = active
• Nc1ncnc2nc[nH]c12 = inactive
• CCCCCCCCCCCCCC[N+](C)(C)C = active
• Nc1c2ccccc2nc2ccccc12 = active

Lab note: next compound to report on.
Returns: the outcome recorded for O=S(=O)(O)c1ccc2nc(-c3ccccc3)[nH]c2c1 in this assay.
inactive

###

assay: qHTS of pediatric cancer cell lines to identify multiple opportunities for drug repurposing: Primary screen for SK-N-SH cells (AID 1347098); details: SK-N-SH viability, CellTiter-Glo luminescence, 48 h; series mostly up to 57 µM;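 note: DMSO served as neutral control and bortezomib at 2.3 µM as positive control; nearly all actives have a fitted effect of over 65% in size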
Inconclusive results are not listed. Calls of active or inactive are those of the source. Calls come from the whole dose curve; as a rule, active = well fitted cell-killing curve with a large enough effect; inconclusive = small, poorly fitted or top-dose-only effect; inactive = no such curve, though single readings can be large or run the other way.
The reply should name one outcome from t (active), f (inactive)

Known results for compounds:
* CCC(=O)O[C@H]1[C@H](O[C@@H]2[C@@H](C)[C@H](O[C@H]3C[C@@](C)(OC)[C@@H](O)[C@H](C)O3)[C@@H](C)C(=O)O[C@H](CC)[C@@](C)(O)[C@H](O)[C@@H](C)C(=O)[C@H](C)C[C@@]2(C)O)O[C@H](C)C[C@@H]1N(C)C | f
* C/C(=C1\CCOC(=O)S1)N(C=O)Cc1cnc(C)nc1N | f
* O=C(O)c1cn(C2CC2)c2cc(Cl)c(F)cc2c1=O | f
* CC(C)CCCC(C)NCCC(C)C (configuration not stated) | f
* Cc1ccc(O)cc1 | f

Returns: the outcome recorded for CCCCCOc1ccccc1/C(=C\SC)n1ccnc1 in this assay.
f

Returns: the outcome recorded for Cc1ccccc1C(=O)N1CC/C(=N\OS(=O)(=O)O)c2ccc(Cl)cc21 in this assay.
f

###

assay: qHTS of pediatric cancer cell lines to identify multiple opportunities for drug repurposing: Primary screen for Rh18 cells (AID 1347102); details: Rh18 rhabdomyosarcoma viability, CellTiter-Glo luminescence, 48 h; series mostly up to 46 µM; note: nearly all actives have a fitted effect of over 65% in size
Inconclusive results are not listed. The source made the active and inactive calls. The call rests on the fitted dose curve; in most records, active means well fitted cell-killing curve with a large enough effect; inconclusive means small, poorly fitted or top-dose-only effect; inactive means flat fitted curve, though single readings scatter.
The reply should name one outcome from 1.0 for active, 0.0 for inactive

Known results for compounds:
• CCCc1ccc(OCC(=O)N2CCN(C(=O)COc3ccc(CCC)cc3OC)CC2)c(OC)c1 = 0.0
• CCCCC(O)/C=C(C)/C=C/C=C/C(=O)N1CCCC1=O (stereo not drawn) = 0.0
• CC(C)C[C@@H]1[C@H](c2ccccc2)OC(=O)N1CCCN1CCCCCC1 = 0.0
• CNC(=O)c1cnn(-c2nc(N)c3ncn([C@@H]4O[C@H](CO)[C@@H](O)[C@H]4O)c3n2)c1 = 0.0

Returns: the outcome recorded for Cc1ccc(-c2ccccc2C#N)cc1 in this assay.
0.0

Returns: the outcome recorded for CC(C)NC(=O)c1ccc(C=O)cc1 in this assay.
0.0

Returns: the outcome recorded for Cc1cc(O)c(C)c(C)c1O in this assay.
0.0

Returns: the outcome recorded for CC1c2ccccc2CN1NC(=O)c1ccc(Cl)c(S(N)(=O)=O)c1 (stereo not drawn) in this assay.
0.0

Returns: the outcome recorded for O=c1[nH]sc2cc(Cl)ccc12 in this assay.
1.0

Returns: the outcome recorded for O=C(O)[C@@H](O)[C@H](O)[C@H](O)[C@@H](O)C(=O)O in this assay.
0.0

Returns: the outcome recorded for OC1(c2ccc(Cl)c(C(F)(F)F)c2)CCN(CCCC(c2ccc(F)cc2)c2ccc(F)cc2)CC1 in this assay.
1.0

Returns: the outcome recorded for Cc1cccc(N(C)C(=S)Oc2ccc3c(c2)CCC3)c1 in this assay.
0.0

Returns: the outcome recorded for O=C1CCCc2c(O)cccc21 in this assay.
0.0

Returns: the outcome recorded for Cc1ccc2ccc(Cl)cc2n1 in this assay.
0.0

###

test system: WaGa; assay: qHTS assay to identify novel small-molecules to repurpose for Merkel cell carcinoma treatment (AID 1296009); details: MCC and control cell lines, CellTiter-Glo viability, 72 h; series mostly up to 46 µM; note: nearly all actives have a fitted effect of over 60% in size
Results filed as inconclusive are left out. Active and inactive are the calls of the source. Calls come from the whole dose curve; as a rule, active = well fitted inhibition curve with a large enough effect; inconclusive = small, poorly fitted or top-dose-only effect; inactive = flat fitted curve, though single readings scatter.
The reply should name one outcome from true for active, false for inactive

Known results for compounds:
• NS(=O)(=O)c1cc(C(=O)NN2C[C@H]3[C@H]4CCC(C4)[C@H]3C2)ccc1Cl = false
• CC[C@@H]([C@H](C)O)n1ncn(-c2ccc(N3CCN(c4ccc(OC[C@@H]5CO[C@@](Cn6cncn6)(c6ccc(F)cc6F)C5)cc4)CC3)cc2)c1=O = false
• Cc1cc(=O)oc2cc(O[C@@H]3SC[C@@H](O)[C@H](O)[C@H]3O)ccc12 = false

Lab note: next compound to report on.
Returns: the outcome recorded for COc1cc(OC)nc(O[C@H](C(=O)O)C(OC)(c2ccccc2)c2ccccc2)n1 in this assay.
false

###

assay: Cell Viability - LYMP2-013 (AID 970); conditions: LYMP2-013 lymphoblastoid cells viability; series mostly up to 92.2 µM;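 note: cells exposed to compound for 24 h at 37 °C; nearly all actives have a fitted effect of over 55% in size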
Inconclusive results are not listed. Calls of active or inactive are those of the source. The call rests on the fitted dose curve; in most records, active means well fitted cell-killing curve with a large enough effect; inconclusive means small, poorly fitted or top-dose-only effect; inactive means flat fitted curve, though single readings scatter.
The reply should name one outcome from active, inactive

* OCc1c[nH]c2ccccc12 | inactive
* CCCC(=O)c1cc(O)c(O)cc1O | inactive

Returns: the outcome recorded for Cc1cc(C(C)(C)C)c(O)c(C(C)(C)C)c1 in this assay.
inactive

Returns: the outcome recorded for c1ccc2occc2c1 in this assay.
inactive

Returns: the outcome recorded for CCCCCCCCCCCCCCCC[n+]1ccccc1 in this assay.
active

Returns: the outcome recorded for C1=CC2C3C=CC(C3)C2C1 (centres undefined) in this assay.
inactive

Returns: the outcome recorded for Brc1ccccc1-c1ccccc1 in this assay.
inactive

Returns: the outcome recorded for Nc1c2ccccc2nc2ccccc12 in this assay.
active

Returns: the outcome recorded for COc1cc(C=O)ccc1O in this assay.
inactive

Returns: the outcome recorded for O=C(Oc1ccccc1)c1ccccc1O in this assay.
inactive

Returns: the outcome recorded for O=C(NO)c1ccccc1 in this assay.
inactive

Returns: the outcome recorded for CCCCC(CC)COC(=O)c1ccccc1C(=O)O (centres undefined) in this assay.
inactive

Returns: the outcome recorded for Nc1cccc2c(N)cccc12 in this assay.
inactive

Returns: the outcome recorded for CC(C)(c1ccc(O)cc1)c1ccc(O)cc1 in this assay.
inactive

###

test: A High-Content qHTS Against Drug Library for the Identification of Small Molecules that Inhibit DYT1 Early Onset Primary Dystonia-Associated Cell Pathology (AID 1645839); details: HEK293 Flp-In EGFP-delE TorsinA, punctate imaging, 48 h; series mostly up to 46.1 µM
Inconclusive results are not listed. The source made the active and inactive calls. Calls come from the whole dose curve.
The reply should name one outcome from active, inactive

Known results for compounds:
* N#C/C(=C1/SC[C@@H](c2ccc(Cl)cc2Cl)S1)n1ccnc1 | inactive
* NC(=O)NC1N=C([O][Al])NC1=O (configuration not stated) | inactive
* Cc1cc(CCCOc2c(C)cc(-c3noc(C(F)(F)F)n3)cc2C)on1 | inactive

Returns: the outcome recorded for COC(=O)c1ccc(NC(C)=O)cc1OC in this assay.
inactive

Returns: the outcome recorded for Cc1onc(-c2ccccc2)c1C(=O)Cl in this assay.
inactive

Returns: the outcome recorded for NC(=O)NS(=O)(=O)c1ccc(Cl)cc1 in this assay.
inactive

Returns: the outcome recorded for CC(C)(C)c1cc(C=O)cc(C(C)(C)C)c1O in this assay.
inactive

Returns: the outcome recorded for CN1C(=O)c2ccccc2C1=O in this assay.
inactive

Returns: the outcome recorded for Cc1nc2n(c(=O)c1CCN1CCC(C(=O)c3ccc(F)cc3)CC1)CCS2 in this assay.
inactive

Returns: the outcome recorded for CC(=O)N(c1onc(C)c1C)S(=O)(=O)c1ccc(N)cc1 in this assay.
inactive

Returns: the outcome recorded for CCCC(=O)O[C@]1(C(=O)CC)CC[C@H]2[C@@H]3CCC4=CC(=O)CC[C@]4(C)[C@H]3[C@@H](O)C[C@@]21C in this assay.
inactive

Returns: the outcome recorded for C=C(C)C(=O)OCC(O)CO (configuration not stated) in this assay.
inactive

Returns: the outcome recorded for CC(=O)CC/C=C(\C)CC/C=C(\C)CC/C=C(\C)CCC=C(C)C in this assay.
inactive

Returns: the outcome recorded for O=C(O)C(=O)Nc1cccc(-c2nn[nH]n2)c1 in this assay.
inactive

Returns: the outcome recorded for Cc1cc(O)c(C)c(C)c1O in this assay.
inactive

Returns: the outcome recorded for CCOC(=O)Oc1ccc(CCNC(=O)[C@H](CCSC)NC(C)=O)cc1OC(=O)OCC in this assay.
inactive

Returns: the outcome recorded for Cc1cccc(N(C)C(=S)Oc2ccc3c(c2)CCC3)c1 in this assay.
inactive

Returns: the outcome recorded for CC[N+]1(CC)CCC(=C(c2ccccc2)c2ccccc2)C1C (configuration not stated) in this assay.
inactive

Returns: the outcome recorded for O=c1[nH]sc2cc(Cl)ccc12 in this assay.
inactive

Reference source for all entries: PubChem BioAssay (NCATS)
